Test: budding yeast growth modifiers under rapamycin – strain BY4716, OD600, 96 h, primary screen (AID 1091); further: test concentration not given here
Conditions: S. cerevisiae BY4716 + rapamycin, higher = more signal, called active from +8 up or from −8 down
Provide the reported z-score of each item.
Give bare numbers.

{"MOLECULE": "CC1CC/C=C\\[C@H]2OC34C=CCN(Cn5nnc6ccccc65)C(=O)[C@H]3N(CCCO)C(=O)[C@@H]4C2C(=O)O1 (some centres undefined)", "z-score": 0.203}
{"MOLECULE": "O=C1C2C=CC(C(O)c3ccc(Br)cc3)N(n3cnnc3)C2C(=O)N1Cc1ccccc1 (centres undefined)", "z-score": 0.881}

List reported z-score for each of these molecules:
1. C[C@H]1C2[C@H](Cc3ccccc3)NC(=O)[C@]23C(=O)N[C@H](Cc2ccccc2)C(=O)N[C@H](Cc2ccccc2)C(=O)NC/C=C/CCC/C=C/C3[C@@H]2O[C@]12C (some centres undefined)
2. Cc1ccc(F)cc1S(=O)(=O)N[C@@H]1CCN(Cc2ccc(C(F)(F)F)cc2)C1
3. COc1ccc([Si](C)(C)[C@@H]2[C@@H](CCO)O[C@]3(C(=O)N(Cc4ccc(N5C(=O)c6cccc7cccc5c67)cc4)c4ccccc43)[C@H]2C)cc1
4. CCCC[C@H]1C[C@@H]1[C@@H]1N(P(=O)(c2ccccc2)c2ccccc2)[C@](CO)(c2ccccc2)CC12CC2
5. O=C(CS)NCCCCCCNC(=O)[C@H]1C[C@H]2C(=O)N3CCC[C@H]3C(=O)N2[C@H]1c1ccc(O)cc1
6. COC(=O)[C@@]1(Cc2ccc(OC)cc2)[C@H]2c3cc(C(=O)N4CCCC4)n(CCN4CCOCC4)c3C[C@H]2CN1C(=O)c1ccccc1
7. O=C1OCC=C[C@H]2OC34C=CCN(Cc5ccccc5)C(=O)[C@H]3N(CCCO)C(=O)[C@@H]4[C@@H]12 (some centres undefined)

1. 0.254
2. -1.1
3. 35.5
4. 5.22
5. 0.369
6. -1.32
7. -0.38

List reported z-score for each of these molecules:
1. O=C1O[C@H](c2ccccc2)[C@H](c2ccccc2)N2[C@H]1[C@@H](C(=O)NC[C@H](O)c1ccccc1)[C@]1(C(=O)Nc3ccc(C#CC4(O)CCCCCC4)cc31)[C@H]2c1ccccc1OCCO
2. CC(=O)NCCCC[C@@H]1NC(=O)[C@@H]2C[C@H](C(=O)NCc3ccc(F)cc3)[C@H](c3ccc(O)cc3)N2C1=O
3. C=CCOC(=O)[C@@H]1[C@H]2C(=O)O[C@H](c3ccccc3)[C@H](c3ccccc3)N2[C@H](c2ccc(OCCOC(=O)[C@H]3C[C@H]4C(=O)N[C@@H](CCCC[N+](C)(C)C)C(=O)N4[C@H]3c3cccc(OCCO)c3)cc2)[C@@]12C(=O)Nc1ccc(I)cc12
4. CC(c1ccccc1)C(O)C1C=CC2C(=O)N(c3ccccc3)C(=O)C2N1Nc1ccccc1F (centres undefined)

5.14
-0.713
4.48
-1.99

Give z-score for COc1ccc(C(O)C2C=CC3C(=O)N(c4ccccc4)C(=O)C3N2Nc2ccccc2)c2ccccc12 (centres undefined) -0.0303

====

Target: Neurogenic locus notch homolog protein 3 (Homo sapiens) (UniProt Q9UM47)
Sequence (Q9UM47 whole entry, looked up): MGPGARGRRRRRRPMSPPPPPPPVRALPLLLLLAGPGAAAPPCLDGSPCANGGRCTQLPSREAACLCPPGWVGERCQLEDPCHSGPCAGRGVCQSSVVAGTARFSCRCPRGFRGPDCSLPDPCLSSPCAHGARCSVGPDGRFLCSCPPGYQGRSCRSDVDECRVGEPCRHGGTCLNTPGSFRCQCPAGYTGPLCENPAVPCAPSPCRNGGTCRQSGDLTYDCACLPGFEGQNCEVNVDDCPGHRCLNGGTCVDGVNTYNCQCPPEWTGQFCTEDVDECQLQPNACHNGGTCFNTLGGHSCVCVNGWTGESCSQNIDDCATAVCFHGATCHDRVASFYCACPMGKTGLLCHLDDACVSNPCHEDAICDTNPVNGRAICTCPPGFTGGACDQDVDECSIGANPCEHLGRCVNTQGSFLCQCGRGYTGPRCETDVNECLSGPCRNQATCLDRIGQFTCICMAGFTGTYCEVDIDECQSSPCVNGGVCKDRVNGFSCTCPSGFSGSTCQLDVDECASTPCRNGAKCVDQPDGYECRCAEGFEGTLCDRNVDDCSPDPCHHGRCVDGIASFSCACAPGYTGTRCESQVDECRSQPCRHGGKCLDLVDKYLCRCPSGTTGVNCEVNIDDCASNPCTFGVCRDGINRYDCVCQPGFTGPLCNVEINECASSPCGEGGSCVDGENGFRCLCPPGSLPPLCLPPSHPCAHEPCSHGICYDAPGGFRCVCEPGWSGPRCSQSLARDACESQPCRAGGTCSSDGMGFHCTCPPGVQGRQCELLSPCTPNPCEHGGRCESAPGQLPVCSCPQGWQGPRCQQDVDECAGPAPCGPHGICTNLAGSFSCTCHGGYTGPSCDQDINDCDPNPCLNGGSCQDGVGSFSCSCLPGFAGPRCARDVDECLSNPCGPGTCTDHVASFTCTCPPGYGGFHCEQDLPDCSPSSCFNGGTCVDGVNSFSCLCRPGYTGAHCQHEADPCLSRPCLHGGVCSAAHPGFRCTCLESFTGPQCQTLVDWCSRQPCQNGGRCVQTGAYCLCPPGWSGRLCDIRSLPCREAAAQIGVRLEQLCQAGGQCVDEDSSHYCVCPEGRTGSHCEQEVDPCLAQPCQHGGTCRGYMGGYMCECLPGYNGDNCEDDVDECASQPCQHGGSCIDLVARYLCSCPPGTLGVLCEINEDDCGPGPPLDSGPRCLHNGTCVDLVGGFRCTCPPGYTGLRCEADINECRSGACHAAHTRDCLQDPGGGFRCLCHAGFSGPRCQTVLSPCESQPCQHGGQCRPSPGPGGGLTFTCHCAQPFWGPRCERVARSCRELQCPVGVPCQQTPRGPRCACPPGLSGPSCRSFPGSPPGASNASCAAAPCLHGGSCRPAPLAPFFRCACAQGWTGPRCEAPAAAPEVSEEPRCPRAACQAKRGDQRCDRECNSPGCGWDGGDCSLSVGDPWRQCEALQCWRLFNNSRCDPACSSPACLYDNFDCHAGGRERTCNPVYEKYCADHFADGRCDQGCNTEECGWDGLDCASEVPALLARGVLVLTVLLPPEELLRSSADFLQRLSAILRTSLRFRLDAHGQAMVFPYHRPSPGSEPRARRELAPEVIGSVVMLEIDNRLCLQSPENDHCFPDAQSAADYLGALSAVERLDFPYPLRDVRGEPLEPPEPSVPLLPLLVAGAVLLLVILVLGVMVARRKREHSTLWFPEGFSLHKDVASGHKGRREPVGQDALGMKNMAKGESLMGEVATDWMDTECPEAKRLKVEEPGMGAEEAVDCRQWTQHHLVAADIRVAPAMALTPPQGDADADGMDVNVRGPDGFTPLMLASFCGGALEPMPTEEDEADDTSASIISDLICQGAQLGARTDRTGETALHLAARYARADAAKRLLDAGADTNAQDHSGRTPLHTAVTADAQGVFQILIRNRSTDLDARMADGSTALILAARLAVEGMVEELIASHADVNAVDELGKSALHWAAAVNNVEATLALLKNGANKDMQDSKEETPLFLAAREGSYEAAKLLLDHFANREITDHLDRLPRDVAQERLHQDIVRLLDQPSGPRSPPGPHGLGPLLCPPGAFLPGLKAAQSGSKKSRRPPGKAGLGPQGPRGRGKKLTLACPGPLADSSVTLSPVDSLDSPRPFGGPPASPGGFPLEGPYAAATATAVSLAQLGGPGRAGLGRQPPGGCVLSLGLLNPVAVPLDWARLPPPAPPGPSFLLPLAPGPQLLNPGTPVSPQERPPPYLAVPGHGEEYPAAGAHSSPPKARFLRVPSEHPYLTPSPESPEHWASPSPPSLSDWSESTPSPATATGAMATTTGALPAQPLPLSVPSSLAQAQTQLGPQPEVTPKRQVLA
Test: small molecules binding NOTCH3 protein – biochemical, 635/667 nm fluorescence, primary screen (AID 1096)
Conditions: small-molecule microarray, 635 nm fluorescence, higher = more signal
Provide the reported composite z-score of each item.

{"MOLECULE": "CCCCCCCCCCC(O)C1C=CC2C(=O)N(c3ccccc3)C(=O)C2N1Nc1ccc([N+](=O)[O-])cc1 (stereo not given)", "composite z-score": 1.09}
{"MOLECULE": "O=C1C2C=CC(C(O)C3CC=CCC3)N(n3cnnc3)C2C(=O)N1Cc1ccccc1 (stereo not given)", "composite z-score": -0.686}
{"MOLECULE": "CCOC(=O)C1=CC[C@@H](c2ccccc2)N(S(=O)(=O)c2ccc(C)cc2)[C@H]1c1ccc(C#N)cc1", "composite z-score": 1.11}
{"MOLECULE": "CCCC[C@H]1C[C@@H]1[C@@H]1N(P(=O)(c2ccccc2)c2ccccc2)[C@](CO)(c2ccccc2)CC12CC2", "composite z-score": -0.318}
{"MOLECULE": "COCCOC(=O)N1C(=O)[C@@]2(c3cc(C#CC4=CCCCC4)ccc31)[C@H](c1ccc(OCCO)cc1)N1[C@H](c3ccccc3)[C@H](c3ccccc3)OC(=O)[C@H]1[C@@H]2C(=O)Nc1nc2ccccc2s1", "composite z-score": 1.08}

List reported composite z-score for each of these molecules:
1. COCCOC(=O)N1C(=O)[C@@]2(c3ccccc31)[C@H](c1ccc(O)cc1)N1[C@H](c3ccccc3)[C@H](c3ccccc3)OC(=O)[C@H]1[C@@H]2C(N)=O
2. COc1ccc([Si](C)(C)[C@@H]2[C@@H](CCO)O[C@]3(C(=O)N(Cc4cccc(N(C=O)c5ccccc5)c4)c4ccccc43)[C@H]2C)cc1
3. C=CCN1C(=O)[C@]2(COC(c3ccc(OCCCO)cc3)=N2)Cc2ccccc21
4. CCCC[C@@H]1C[C@H]1[C@@H](NC(=O)c1ccccc1)c1ccc(-c2ccccc2)cc1
5. CN1C(=O)C2C(C1=O)C1C=C(c3ccc(CO)cc3)C2C(C2CC2)N1Cc1sc2ccccc2c1Cl (stereo not given)
6. C#C[C@H](O[Si](C#CCCCCCC)(C(C)C)C(C)C)c1ccccc1
7. O=P(NCC1(CC2(c3ccccc3)CO2)CC1)(c1ccccc1)c1ccccc1 (stereo not given)

[-0.474, 0.258, 0.801, 0.496, 1.03, 0.13, -1.19]

List reported composite z-score for each of these molecules:
1. NC(=O)[C@]1(Cc2ccccc2)N=C(c2ccc(OCCCO)cc2)O[C@@H]1c1ccccc1
2. COC(=O)[C@@]1(Cc2ccccc2)[C@H]2c3cc(C(=O)N(C)C)n(Cc4ccccc4)c3C[C@H]2CN1C(=O)c1ccccc1

0.658
0.85

Please report the measured composite z-score for C=CCC(OC(C)=O)[C@@H]1[C@@H](N(Cc2cc3ccccc3o2)C(=O)c2ccc(C)cc2)c2cc(OCCCO)ccc2N1C(=O)c1ccc(-c2ccccc2)cc1 (stereo not given in full) tested on Neurogenic locus notch homolog protein 3 (Homo sapiens) (UniProt Q9UM47). -0.217

Reference for the values: PubChem BioAssay
